Test system: panel of cancer cell lines
method_notes: Cell viability (CellTiter-Glo) dose-response across cancer cell line panel;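 also: after 72 h compound incubation with CellTiter-Glo ATP readout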
Assay type: cell-based, human
assay_conditions: Homo sapiens, CMK
measured_metric: pEC50
Notebook: values listed as pEC50 are -log10 of the concentration (mol/L).

input_smiles	result_number
NS(=O)(=O)OC[C@@H]1C[C@@H](n2ccc3c(N[C@H]4CCc5ccccc54)ncnc32)C[C@@H]1O	6.86

Field pEC50 (entry CC(C)C[C@H](NC(=O)[C@H](Cc1ccccc1)NC(=O)c1cnccn1)B(O)O ) reads 8.40

Field pEC50 (entry COCc1ccccc1NCc1ccc([C@H]2[C@@H](O)CCCc3cncn32)c(-c2ccccc2Cl)c1 ) reads 5.74
